test system: methicillin-resistant S. aureus (MRSA) (NCTC12493); format: cell-based, Staphylococcus aureus
Positions of bridges follow the written chain, without caps; N, C: chain ends. Residues, ends and D or L forms follow the SMILES beside them.

[
  {
    "Compound": "CC[C@H](C)[C@@H]1NC(=O)[C@H](C)NC(=O)[C@@H](NC(=O)[C@H](Cc2ccccc2)NC(=O)[C@@H](NC(=O)[C@H](CCCCN)NC(=O)[C@H](Cc2c[nH]c3ccccc23)NC(=O)[C@@H]2CCCN2C(=O)[C@H](CC(C)C)NC(=O)[C@H](Cc2ccccc2)NC(=O)[C@@H](N)CCCCN)[C@@H](C)CC)CSSC[C@@H](C(=O)O)NC(=O)[C@H](CCCCN)NC(=O)[C@H](CCCCN)NC(=O)[C@H]([C@@H](C)O)NC1=O [KWB2] (H-KFLPWKIFCAITKKC-OH; disulfide 9-15)",
    "Test Target": "methicillin-resistant S. aureus (MRSA) (NCTC12493)",
    "Scale Unit": "µM",
    "MIC MRSA": 8
  }
]

* * *

system: horse erythrocytes; assay: Haemolytic assay; assay type: cell-based; details: 2% (v/v) horse red blood cells, 37 °C, 2 h; 1% Triton-X 100 positive control; three times in five replicates
Positions of bridges follow the written chain, without caps; N, C: chain ends. Residues, ends and D or L forms follow the SMILES beside them.
Recorded Metric: HC10 (concentration causing 10% red cell lysis) (µM)

[
  {
    "Compound": "CC[C@H](C)[C@@H]1NC(=O)[C@H](C)NC(=O)[C@@H](NC(=O)[C@H](Cc2ccccc2)NC(=O)[C@@H](NC(=O)[C@H](CCCCN)NC(=O)[C@@H]2CCCN2C(=O)[C@H](CC(C)C)NC(=O)[C@H](Cc2ccccc2)NC(=O)[C@@H](N)CCCCN)[C@@H](C)CC)CSSC[C@@H](C(=O)O)NC(=O)[C@H](CCCCN)NC(=O)[C@H](CCCCN)NC(=O)[C@H]([C@@H](C)O)NC1=O [KB2] (H-KFLPKIFCAITKKC-OH; disulfide 8-14)",
    "Measurement": 154
  },
  {
    "Compound": "CC[C@H](C)[C@@H]1NC(=O)[C@H](C)NC(=O)[C@@H](NC(=O)[C@H](Cc2ccccc2)NC(=O)[C@@H](NC(=O)[C@H](CCCCN)NC(=O)[C@H](Cc2c[nH]c3ccccc23)NC(=O)[C@@H]2CCCN2C(=O)[C@H](Cc2c[nH]c3ccccc23)NC(=O)[C@H](Cc2ccccc2)NC(=O)[C@@H](N)CCCCN)[C@@H](C)CC)CSSC[C@@H](C(=O)O)NC(=O)[C@H](CCCCN)NC(=O)[C@H](CCCCN)NC(=O)[C@H]([C@@H](C)O)NC1=O [KW^3,5B2] (H-KFWPWKIFCAITKKC-OH; disulfide 9-15)",
    "Measurement": 32.07
  },
  {
    "Compound": "CC[C@H](C)[C@@H]1NC(=O)[C@H](C)NC(=O)[C@@H](NC(=O)[C@H](Cc2ccccc2)NC(=O)[C@@H](NC(=O)[C@H](CCCCN)NC(=O)[C@@H]2CCCN2C(=O)[C@H](CC(C)C)NC(=O)[C@H](Cc2ccccc2)NC(=O)[C@H](CCCCN)NC(=O)[C@@H](N)CCCCN)[C@@H](C)CC)CSSC[C@@H](C(=O)O)NC(=O)[C@H](CCCCN)NC(=O)[C@H](CCCCN)NC(=O)[C@H]([C@@H](C)O)NC1=O [KKB2] (H-KKFLPKIFCAITKKC-OH; disulfide 9-15)",
    "Measurement": 207
  },
  {
    "Compound": "CC[C@H](C)[C@@H]1NC(=O)[C@H](C)NC(=O)[C@@H](NC(=O)[C@H](Cc2ccccc2)NC(=O)[C@H](Cc2c[nH]c3ccccc23)NC(=O)[C@H](CCCCN)NC(=O)[C@H](Cc2c[nH]c3ccccc23)NC(=O)[C@@H]2CCCN2C(=O)[C@H](CC(C)C)NC(=O)[C@H](Cc2ccccc2)NC(=O)[C@@H](N)CCCCN)CSSC[C@@H](C(=O)O)NC(=O)[C@H](CCCCN)NC(=O)[C@H](CCCCN)NC(=O)[C@H]([C@@H](C)O)NC1=O [KW^5,7B2] (H-KFLPWKWFCAITKKC-OH; disulfide 9-15)",
    "Measurement": 58.42
  }
]

* * *

System: Enterococcus faecalis (NCTC12697)
Format: cell-based
Procedure: The antimicrobial assay was carried out to detect the minimum inhibitory concentration (MIC) and the minimum bactericidal concentration (MBC) of each peptide on the microbes as described previously. […]
Positions of bridges follow the written chain, without caps; N, C: chain ends. Residues, ends and D or L forms follow the SMILES beside them.
Recorded Metric: MBC E. faecalis (µM)

[
  {
    "Compound": "CC[C@H](C)[C@@H]1NC(=O)[C@H](C)NC(=O)[C@@H](NC(=O)[C@H](Cc2ccccc2)NC(=O)[C@@H](NC(=O)[C@H](CCCCN)NC(=O)[C@H](Cc2c[nH]c3ccccc23)NC(=O)[C@@H]2CCCN2C(=O)[C@H](CC(C)C)NC(=O)[C@H](Cc2ccccc2)NC(=O)[C@@H](N)CCCCN)[C@@H](C)CC)CSSC[C@@H](C(=O)O)NC(=O)[C@H](CCCCN)NC(=O)[C@H](CCCCN)NC(=O)[C@H]([C@@H](C)O)NC1=O [KWB2] (H-KFLPWKIFCAITKKC-OH; disulfide 9-15)",
    "Scale Unit": "µM",
    "Measurement": 512
  }
]

* * *

test system: Enterococcus faecalis (NCTC12697); assay type: cell-based
Positions of bridges follow the written chain, without caps; N, C: chain ends. Residues, ends and D or L forms follow the SMILES beside them.

[
  {
    "Molecule": "CC[C@H](C)[C@@H]1NC(=O)[C@H](C)NC(=O)[C@@H](NC(=O)[C@H](Cc2ccccc2)NC(=O)[C@@H](NC(=O)[C@H](CCCCN)NC(=O)[C@@H]2CCCN2C(=O)[C@H](CC(C)C)NC(=O)[C@H](Cc2ccccc2)NC(=O)[C@H](CCCCN)NC(=O)[C@@H](N)CCCCN)[C@@H](C)CC)CSSC[C@@H](C(=O)O)NC(=O)[C@H](CCCCN)NC(=O)[C@H](CCCCN)NC(=O)[C@H]([C@@H](C)O)NC1=O [KKB2] (H-KKFLPKIFCAITKKC-OH; disulfide 9-15)",
    "Test Target": "Enterococcus faecalis (NCTC12697)",
    "Scale Unit": "µM",
    "MBC E. faecalis": 512
  },
  {
    "Molecule": "CC[C@H](C)[C@@H]1NC(=O)[C@H](C)NC(=O)[C@@H](NC(=O)[C@H](Cc2ccccc2)NC(=O)[C@@H](NC(=O)[C@H](CCCCN)NC(=O)[C@H](Cc2c[nH]c3ccccc23)NC(=O)[C@@H]2CCCN2C(=O)[C@H](Cc2c[nH]c3ccccc23)NC(=O)[C@H](Cc2ccccc2)NC(=O)[C@@H](N)CCCCN)[C@@H](C)CC)CSSC[C@@H](C(=O)O)NC(=O)[C@H](CCCCN)NC(=O)[C@H](CCCCN)NC(=O)[C@H]([C@@H](C)O)NC1=O [KW^3,5B2] (H-KFWPWKIFCAITKKC-OH; disulfide 9-15)",
    "Test Target": "Enterococcus faecalis (NCTC12697)",
    "Scale Unit": "µM",
    "MBC E. faecalis": 256
  },
  {
    "Molecule": "CC[C@H](C)[C@@H]1NC(=O)[C@H](C)NC(=O)[C@@H](NC(=O)[C@H](Cc2ccccc2)NC(=O)[C@@H](NC(=O)[C@H](CCCCN)NC(=O)[C@H](Cc2c[nH]c3ccccc23)NC(=O)[C@@H]2CCCN2C(=O)[C@H](CC(C)C)NC(=O)[C@H](Cc2ccccc2)NC(=O)[C@H](CCCCN)NC(=O)[C@@H](N)CCCCN)[C@@H](C)CC)CSSC[C@@H](C(=O)O)NC(=O)[C@H](CCCCN)NC(=O)[C@H](CCCCN)NC(=O)[C@H]([C@@H](C)O)NC1=O [KKWB2] (H-KKFLPWKIFCAITKKC-OH; disulfide 10-16)",
    "Test Target": "Enterococcus faecalis (NCTC12697)",
    "Scale Unit": "µM",
    "MBC E. faecalis": 512
  }
]

* * *

test system: methicillin-resistant S. aureus (MRSA) (NCTC12493); type: cell-based, Staphylococcus aureus
Positions of bridges follow the written chain, without caps; N, C: chain ends. Residues, ends and D or L forms follow the SMILES beside them.
# MIC MRSA listing for each entry below

[
  {
    "Molecule": "CC[C@H](C)[C@@H]1NC(=O)[C@H](C)NC(=O)[C@@H](NC(=O)[C@H](Cc2ccccc2)NC(=O)[C@@H](NC(=O)[C@H](CCCCN)NC(=O)[C@H](Cc2c[nH]c3ccccc23)NC(=O)[C@@H]2CCCN2C(=O)[C@H](Cc2c[nH]c3ccccc23)NC(=O)[C@H](Cc2ccccc2)NC(=O)[C@@H](N)CCCCN)[C@@H](C)CC)CSSC[C@@H](C(=O)O)NC(=O)[C@H](CCCCN)NC(=O)[C@H](CCCCN)NC(=O)[C@H]([C@@H](C)O)NC1=O [KW^3,5B2] (H-KFWPWKIFCAITKKC-OH; disulfide 9-15)",
    "Test Target": "methicillin-resistant S. aureus (MRSA) (NCTC12493)",
    "Scale Unit": "µM",
    "Value Comparator": "=",
    "MIC MRSA": 8
  },
  {
    "Molecule": "CC[C@H](C)[C@@H]1NC(=O)[C@H](C)NC(=O)[C@@H](NC(=O)[C@H](CCCCN)NC(=O)[C@H](C)NC(=O)[C@H](C)NC(=O)[C@H](CC(C)C)NC(=O)CNC(=O)[C@H](C)NC(=O)[C@@H](NC(=O)[C@H](CC(C)C)NC(=O)[C@@H]2CCCN2C(=O)[C@H](CC(C)C)NC(=O)[C@@H](N)Cc2ccccc2)[C@@H](C)CC)CSSC[C@@H](C(=O)O)NC(=O)[C@H](CCCCN)NC(=O)[C@H](CCCCN)NC(=O)[C@H]([C@@H](C)O)NC1=O [Peptide B1A1] (H-FLPLIAGLAAKCAITKKC-OH; disulfide 12-18)",
    "Test Target": "methicillin-resistant S. aureus (MRSA) (NCTC12493)",
    "Scale Unit": "µM",
    "Value Comparator": ">",
    "MIC MRSA": 512
  },
  {
    "Molecule": "CC[C@H](C)[C@@H]1NC(=O)[C@H](C)NC(=O)[C@@H](NC(=O)[C@H](Cc2ccccc2)NC(=O)[C@@H](NC(=O)[C@H](CCCCN)NC(=O)[C@H](Cc2c[nH]c3ccccc23)NC(=O)[C@@H]2CCCN2C(=O)[C@H](CC(C)C)NC(=O)[C@H](Cc2ccccc2)NC(=O)[C@H](CCCCN)NC(=O)[C@@H](N)CCCCN)[C@@H](C)CC)CSSC[C@@H](C(=O)O)NC(=O)[C@H](CCCCN)NC(=O)[C@H](CCCCN)NC(=O)[C@H]([C@@H](C)O)NC1=O [KKWB2] (H-KKFLPWKIFCAITKKC-OH; disulfide 10-16)",
    "Test Target": "methicillin-resistant S. aureus (MRSA) (NCTC12493)",
    "Scale Unit": "µM",
    "Value Comparator": "=",
    "MIC MRSA": 8
  },
  {
    "Molecule": "CC[C@H](C)[C@@H]1NC(=O)[C@H](C)NC(=O)[C@@H](NC(=O)[C@H](Cc2ccccc2)NC(=O)[C@@H](NC(=O)[C@H](CCCCN)NC(=O)[C@@H]2CCCN2C(=O)[C@H](CC(C)C)NC(=O)[C@H](Cc2ccccc2)NC(=O)[C@H](CCCCN)NC(=O)[C@@H](N)CCCCN)[C@@H](C)CC)CSSC[C@@H](C(=O)O)NC(=O)[C@H](CCCCN)NC(=O)[C@H](CCCCN)NC(=O)[C@H]([C@@H](C)O)NC1=O [KKB2] (H-KKFLPKIFCAITKKC-OH; disulfide 9-15)",
    "Test Target": "methicillin-resistant S. aureus (MRSA) (NCTC12493)",
    "Scale Unit": "µM",
    "Value Comparator": "=",
    "MIC MRSA": 16
  },
  {
    "Molecule": "CC[C@H](C)[C@@H]1NC(=O)[C@H](C)NC(=O)[C@@H](NC(=O)[C@H](Cc2ccccc2)NC(=O)[C@@H](NC(=O)[C@H](CCCCN)NC(=O)[C@@H]2CCCN2C(=O)[C@H](CC(C)C)NC(=O)[C@H](Cc2ccccc2)NC(=O)[C@@H](N)CCCCN)[C@@H](C)CC)CSSC[C@@H](C(=O)O)NC(=O)[C@H](CCCCN)NC(=O)[C@H](CCCCN)NC(=O)[C@H]([C@@H](C)O)NC1=O [KB2] (H-KFLPKIFCAITKKC-OH; disulfide 8-14)",
    "Test Target": "methicillin-resistant S. aureus (MRSA) (NCTC12493)",
    "Scale Unit": "µM",
    "Value Comparator": "=",
    "MIC MRSA": 16
  },
  {
    "Molecule": "CC[C@H](C)[C@@H]1NC(=O)[C@H](C)NC(=O)[C@@H](NC(=O)[C@H](Cc2ccccc2)NC(=O)[C@@H](NC(=O)[C@H](CCCCN)NC(=O)[C@@H]2CCCN2C(=O)[C@H](CC(C)C)NC(=O)[C@@H](N)Cc2ccccc2)[C@@H](C)CC)CSSC[C@@H](C(=O)O)NC(=O)[C@H](CCCCN)NC(=O)[C@H](CCCCN)NC(=O)[C@H]([C@@H](C)O)NC1=O [Peptide B1A2] (H-FLPKIFCAITKKC-OH; disulfide 7-13)",
    "Test Target": "methicillin-resistant S. aureus (MRSA) (NCTC12493)",
    "Scale Unit": "µM",
    "Value Comparator": "=",
    "MIC MRSA": 256
  }
]
